# System: Staphylococcus epidermidis 222
# method summary: MIC, standard agar-dilution assay (Table IX)
# Format: cell-based
# test context: read-out: MIC
readout: MIC (µg/mL)
Kindly answer with a numeric value in µg/mL, unit omitted.

The examples below pair each entry with its known result.
CCC1OC(=O)CC(O)C(C)C(OC2OC(C)C(O)C(N(C)C)C2O)C(CCN2CCCCCCCCCCCC2)CC(C)C(=O)C=CC(C)=CC1COC1OC(C)C(O)C(OC)C1OC (centres unmarked) = 0.12
CCC1OC(=O)CC(O)C(C)C(OC2OC(C)C(OC3CC(C)(O)C(O)C(C)O3)C(N(C)C)C2O)C(CCN2CC3CCC(CC3)C2)CC(C)C(=O)C=CC(C)=CC1COC1OC(C)C(O)C(OC)C1OC (centres unmarked) = 2
CCC1OC(=O)CC(O)C(C)C(OC2OC(C)C(O)C(N(C)C)C2O)C(CCN2CCC(N3CCCCC3)CC2)CC(C)C(=O)C=CC(C)=CC1COC1OC(C)C(O)C(OC)C1OC (centres unmarked) = 0.25

Lookup: Please give the measured MIC for this compound: CCC1OC(=O)CC(O)C(C)C(OC2OC(C)C(O)C(N(C)C)C2O)C(CCN2C[C@H](C)C[C@H](C)C2)CC(C)C(=O)C=CC(C)=CC1COC1OC(C)C(O)C(OC)C1OC (some centres unmarked)
Found: 0.25

Lookup: // query MIC value for entry CCC1OC(=O)CC(O)C(C)C(OC2OC(C)C(O)C(N(C)C)C2O)C(CCN2CCCC2)CC(C)C(=O)C=CC(C)=CC1COC1OC(C)C(O)C(OC)C1OC (centres unmarked) [Compound D1, 20-DH-DO-20-(pyrrolidin-1-yl)desmycosin]
Found: 1
